# applied_conditions: in ethanol, 278.15 K
observation_type: solubility (mole fraction)

Nc1cc([N+](=O)[O-])ccc1Cl; 0.0112

* * *

# applied_conditions: in methanol, 293.15 K
observation_type: solubility (mole fraction)

Nc1cc([N+](=O)[O-])ccc1Cl; 0.0141

* * *

# applied_conditions: in isopropanol, 303.15 K
observation_type: solubility (mole fraction)

Nc1cc([N+](=O)[O-])ccc1Cl; 0.0158

* * *

# applied_conditions: in 1,4-dioxane, 313.15 K
observation_type: solubility (mole fraction)

Nc1cc([N+](=O)[O-])ccc1Cl; 0.169

* * *

# applied_conditions: in ethyl acetate, 308.15 K
observation_type: solubility (mole fraction)

Nc1cc([N+](=O)[O-])ccc1Cl; 0.135

* * *

# applied_conditions: in n-butanol, 308.15 K
observation_type: solubility (mole fraction)

Nc1cc([N+](=O)[O-])ccc1Cl; 0.0213

* * *

# applied_conditions: in 1,4-dioxane, 308.15 K
observation_type: solubility (mole fraction)

Nc1cc([N+](=O)[O-])ccc1Cl; 0.154

* * *

# applied_conditions: in acetone, 283.15 K
observation_type: solubility (mole fraction)

Nc1cc([N+](=O)[O-])ccc1Cl; 0.122

* * *

# applied_conditions: in toluene, 293.15 K
observation_type: solubility (mole fraction)

Nc1cc([N+](=O)[O-])ccc1Cl; 0.0199

* * *

# applied_conditions: in 2-butanone, 283.15 K
observation_type: solubility (mole fraction)

Nc1cc([N+](=O)[O-])ccc1Cl; 0.108

* * *

# applied_conditions: in 2-butanone, 273.15 K
observation_type: solubility (mole fraction)

Nc1cc([N+](=O)[O-])ccc1Cl; 0.0877

* * *

# applied_conditions: in NMP, 283.15 K
observation_type: solubility (mole fraction)

Nc1cc([N+](=O)[O-])ccc1Cl; 0.166

* * *

# applied_conditions: in isopropanol, 313.15 K
observation_type: solubility (mole fraction)

Nc1cc([N+](=O)[O-])ccc1Cl; 0.0226

* * *

# applied_conditions: in toluene, 278.15 K
observation_type: solubility (mole fraction)

Nc1cc([N+](=O)[O-])ccc1Cl; 0.0134

* * *

# applied_conditions: in ethanol, 293.15 K
observation_type: solubility (mole fraction)

Nc1cc([N+](=O)[O-])ccc1Cl; 0.0173

* * *

# applied_conditions: in ethanol, 308.15 K
observation_type: solubility (mole fraction)

Nc1cc([N+](=O)[O-])ccc1Cl; 0.0258

* * *

# applied_conditions: in methanol, 313.15 K
observation_type: solubility (mole fraction)

Nc1cc([N+](=O)[O-])ccc1Cl; 0.0263

* * *

# applied_conditions: in 2-butanone, 278.15 K
observation_type: solubility (mole fraction)

Nc1cc([N+](=O)[O-])ccc1Cl; 0.0973
